System: REL-A (p65) nuclear translocation in HeLa cells
Experiment: REL-A HeLa nuclear translocation assay (TNF-α stimulated, high content imaging)
Format: cell-based
Settings: Homo sapiens, 10 ng/mL TNF-α
pIC50: −log10 of the molar value.
parameter: pIC50

Recorded pIC50 for CN1CC[C@@](O)(C#Cc2cccc(-c3nc(C(N)=O)c4ccccn34)c2)C1=O [Compound C-5] , please?
< 4.70

Now consider COc1ccn2c(C(N)=O)nc(-c3cccc(C#C[C@]4(O)CCN(C)C4=O)c3)c2c1 [Compound C-4, reference compound] and answer again.
< 6.00

Next molecule: CN1CC[C@@](O)(C#Cc2cccc(-c3nc(C(N)=O)c(N)s3)c2)C1=O [Compound C-6, reference compound]
< 5.30

Moving on to CN1CC[C@@](O)(C#Cc2cccc(-c3nc(C(N)=O)n4ccccc34)c2)C1=O [Compound C-3]
< 4.70

Now consider CN1CC[C@@](O)(C#Cc2cccc(-n3nc(C(N)=O)c4cccnc43)c2)C1=O [Compound C-1] and answer again.
< 4.70

====

Record form. Attribute: Hep CL (human hepatocyte clearance). Fill in for each entry.
Assay: Hepatocyte stability
Format: in vitro ADME
Conditions: human hepatocytes
Answer in mL/min/kg, number only, no unit symbol.

Fill in: Hep CL (human hepatocyte clearance) of CN1C(=O)[C@](O)(C#Cc2cccc(-c3nc(C(N)=O)n4ccccc34)c2)[C@H]2C[C@H]21 [Compound 3] is ___
9.0

Consider next the compound CN1C(=O)[C@](O)(C#Cc2cccc(-n3nc(C(N)=O)c4cccnc43)c2)[C@@H]2C[C@@H]21 [Compound 2] in the same way.
13

Now give it for CN1C(=O)[C@](O)(C#Cc2cccc(-n3nc(C(N)=O)c4cccnc43)c2)[C@H]2C[C@H]21 [Compound 1] too.
0.8

Then CN1CC[C@@](O)(C#Cc2cccc(-c3nc(C(N)=O)c(N)s3)c2)C1=O [Compound C-6, reference compound] ?
1.1

How about this compound: CN1C(=O)[C@](O)(C#Cc2cccc(-c3nc(C(N)=O)c(N)s3)c2)[C@H]2C[C@H]21 [Compound 6]
2.7

Also check COc1ccn2c(C(N)=O)nc(-c3cccc(C#C[C@]4(O)CCN(C)C4=O)c3)c2c1 [Compound C-4, reference compound]
9.9

Now this one: CN1C(=O)[C@](O)(C#Cc2cccc(-c3nc(C(N)=O)c4ccccn34)c2)[C@H]2C[C@H]21 [Compound 5]
1.6

====

Test: Liver microsome stability
Type: in vitro ADME
Conditions: human liver microsomes
Note to self: values exactly at 8 mL/min/kg are T. So HLM CL (human liver microsome clearance) at or above 8 mL/min/kg is T, below is F.

Given "CN1C(=O)[C@](O)(C#Cc2cccc(-c3nc(C(N)=O)c4ccccn34)c2)[C@H]2C[C@H]21" , state whether its HLM CL (human liver microsome clearance) is at least 8 mL/min/kg.
F

Here is the next molecule: "CN1C(=O)[C@](O)(C#Cc2cccc(-n3nc(C(N)=O)c4cccnc43)c2)[C@H]2C[C@H]21"
F

Similarly, "CN1C(=O)[C@](O)(C#Cc2cccc(-n3nc(C(N)=O)c4cccnc43)c2)[C@@H]2C[C@@H]21" ?
F

And "CN1C(=O)[C@](O)(C#Cc2cccc(-c3nc(C(N)=O)c(N)s3)c2)[C@H]2C[C@H]21" ?
F

Follow-up item: "CN1C(=O)[C@](O)(C#Cc2cccc(-c3nc(C(N)=O)n4ccccc34)c2)[C@H]2C[C@H]21"
T

Now this one: COc1ccn2c(C(N)=O)nc(-c3cccc(C#C[C@]4(O)CCN(C)C4=O)c3)c2c1 [Compound C-4, reference compound]
T

"COc1ccn2c(C(N)=O)nc(-c3cccc(C#C[C@@]4(O)C(=O)N(C)[C@@H]5C[C@@H]54)c3)c2c1" ?
T

Note, next up: CN1CC[C@@](O)(C#Cc2cccc(-c3nc(C(N)=O)c(N)s3)c2)C1=O [Compound C-6, reference compound]
F

====

For reference, pKi measured on nuclear factor-kappa B (NF-kB)-inducing kinase (NIK) (Homo sapiens (Human)):
pKi is a log-scale quantity: -log10 of the concentration expressed in molar.

For the molecule "CN1C(=O)[C@](O)(C#Cc2cccc(-c3nc(C(N)=O)c4ccccn34)c2)[C@H]2C[C@H]21" , what pKi is on record?
8.33

Try this molecule too: "CN1C(=O)[C@](O)(C#Cc2cccc(-c3nc(C(N)=O)c(N)s3)c2)[C@H]2C[C@H]21"
10.30

Item: CN1CC[C@@](O)(C#Cc2cccc(-c3nc(C(N)=O)c(N)s3)c2)C1=O [Compound C-6, reference compound]
9.89

Also, "COc1ccn2c(C(N)=O)nc(-c3cccc(C#C[C@@]4(O)C(=O)N(C)[C@@H]5C[C@@H]54)c3)c2c1" please.
10.30

Next up: "CN1C(=O)[C@](O)(C#Cc2cccc(-n3nc(C(N)=O)c4cccnc43)c2)[C@H]2C[C@H]21"
9.06

Then "CN1C(=O)[C@](O)(C#Cc2cccc(-n3nc(C(N)=O)c4cccnc43)c2)[C@@H]2C[C@@H]21" ?
8.37

====

Exercise: state measured log10 IC50 for each of the compounds provided.
System: p52 (NF-kB2) nuclear translocation in HeLa cells
Test: p52 HeLa nuclear translocation assay (anti-lymphotoxin beta receptor antibody stimulated)
Format: cell-based
Settings: Homo sapiens, 100 ng/mL anti-lymphotoxin beta receptor antibody
Annotation: log10 of IC50, µM basis.

Please give the measured log10 IC50 for this compound: CN1CC[C@@](O)(C#Cc2cccc(-c3nc(C(N)=O)n4ccccc34)c2)C1=O [Compound C-3]
-1.53

Here is the next compound: CN1CC[C@@](O)(C#Cc2cccc(-n3nc(C(N)=O)c4cccnc43)c2)C1=O [Compound C-1]
-1.10

Same again, this time with CN1CC[C@@](O)(C#Cc2cccc(-c3nc(C(N)=O)c(N)s3)c2)C1=O [Compound C-6, reference compound]
-1.10

Record: COc1ccn2c(C(N)=O)nc(-c3cccc(C#C[C@]4(O)CCN(C)C4=O)c3)c2c1 [Compound C-4, reference compound]
-2.18

Can you handle CN1CC[C@@](O)(C#Cc2cccc(-c3nc(C(N)=O)c4ccccn34)c2)C1=O [Compound C-5] next?
-0.62

====

Record form. Attribute: pIC50. Fill in for each entry.
System: p52 (non-classical NF-kB signaling) nuclear translocation in HUVEC
Test: p52 HUVEC nuclear translocation assay (anti-lymphotoxin beta receptor antibody stimulated)
Assay type: cell-based
Conditions: Homo sapiens, 300 ng/mL anti-lymphotoxin beta receptor antibody
The meaning of pIC50 here: minus log10 of the concentration in molar units.

For "CN1C(=O)[C@](O)(C#Cc2cccc(-n3nc(C(N)=O)c4cccnc43)c2)[C@H]2C[C@H]21" , what is its reported pIC50?
7.26

Same for "CN1C(=O)[C@](O)(C#Cc2cccc(-c3nc(C(N)=O)c4ccccn34)c2)[C@H]2C[C@H]21"
5.52

Then "CN1C(=O)[C@](O)(C#Cc2cccc(-c3nc(C(N)=O)n4ccccc34)c2)[C@H]2C[C@H]21" ?
7.60

Try this molecule too: "CN1C(=O)[C@](O)(C#Cc2cccc(-n3nc(C(N)=O)c4cccnc43)c2)[C@@H]2C[C@@H]21"
6.55

These measurements were taken from patent US10550117B2.
